- Test system: luciferase (Luc) mRNA
- method-notes: Luc expression in liver, lung, spleen and femur 6 hours after intravenous administration
- Format: in vivo
- condition: mice, i.v., 0.5 mpk, in words
value-type: Flux in the spleen

Here's what some known entries look like.
{"columns": ["molecule", "Flux in the spleen"],
 "data": [
  ["CCCCCCCCC(C)OC(=O)CCCCCCCN(CCO)CCCCCCCC(=O)N(CCCCCCCC)CCCCCCCC (stereo not shown)", "highest"],
  ["CCCCCCCCCOC(=O)CCCCCCCN(CCO)CCCCCCCC(=O)OC(CC)CC", "lowest"],
  ["CCCCCCCCCOC(=O)CCCCCCCN(CCCCCCCC(=O)OC(CCCCCCCC)CCCCCCCC)CCCNC(C)=O", "highest"],
  ["CCCCCCCCCOC(=O)CCCCCCCN(CCO)CCCCCCCC(=O)OC(CCCCC)CCCCCCCC (stereo not shown)", "highest"],
  ["CCCCCCCCC(CCCCCCCC)OC(=O)CCCCCCCN(C)CCCCCCCC(=O)OC(CCCCCCCC)CCCCCCCC", "lowest"],
  ["CCCCCCCCC(C)OC(=O)CCCCCCCN(CCO)CCCCCCCC(=O)OC(CCCCCCCC)CCCCCCCC (stereo not shown)", "highest"]
]}

Tested system luciferase (Luc) mRNA; Flux in the spleen recorded for CCCCCCCCC(CCCCCCCC)OC(=O)CCCCCCCN(CCO)CCCCCCCC was highest
